Source: ChEMBL document CHEMBL1146031

Listed below: AUC values for each entry.
- TEST DETAILS: AUC in Wistar rat at 100 mg/kg, po
- Type: ADME, organism-based
- Design: dose 100 mg/kg, route oral
- TEST PARAMETERS: plasma
Express your answer in µg·h/mL, writing the number without its unit.

Complete the entry with AUC for `NS(=O)(=O)c1ccc(-n2nc(C(F)F)cc2-c2ccc(Br)cc2)cc1CO`
239

Complete the entry with AUC for `CCC(=O)[N-]S(=O)(=O)c1ccc(-n2nc(C(F)F)cc2-c2ccc(Br)cc2)cc1CO.[Na+]`
289

Complete the entry with AUC for `COc1ccc(-c2cc(C(F)F)nn2-c2ccc(S(N)(=O)=O)c(CO)c2)cc1C`
2.4

Complete the entry with AUC for `COc1ccc(-c2cc(C(F)(F)F)nn2-c2ccc(S(N)(=O)=O)c(CO)c2)cc1C`
73.7

Complete the entry with AUC for `CCC(=O)[N-]S(=O)(=O)c1ccc(-n2nc(C(F)(F)F)cc2-c2ccc(OC)c(C)c2)cc1CO.[Na+]`
125

Then this compound:
Complete the entry with AUC for `CCC(=O)[N-]S(=O)(=O)c1ccc(-n2nc(C(F)F)cc2-c2ccc(OC)c(C)c2)cc1CO.[Na+]`
106
